Measured values drawn from ChEMBL document CHEMBL4004870 for this set.

- test-target: Nuclear receptor ROR-gamma (Mus musculus)
- Sequence (P51450 whole entry, the tested form may be a part): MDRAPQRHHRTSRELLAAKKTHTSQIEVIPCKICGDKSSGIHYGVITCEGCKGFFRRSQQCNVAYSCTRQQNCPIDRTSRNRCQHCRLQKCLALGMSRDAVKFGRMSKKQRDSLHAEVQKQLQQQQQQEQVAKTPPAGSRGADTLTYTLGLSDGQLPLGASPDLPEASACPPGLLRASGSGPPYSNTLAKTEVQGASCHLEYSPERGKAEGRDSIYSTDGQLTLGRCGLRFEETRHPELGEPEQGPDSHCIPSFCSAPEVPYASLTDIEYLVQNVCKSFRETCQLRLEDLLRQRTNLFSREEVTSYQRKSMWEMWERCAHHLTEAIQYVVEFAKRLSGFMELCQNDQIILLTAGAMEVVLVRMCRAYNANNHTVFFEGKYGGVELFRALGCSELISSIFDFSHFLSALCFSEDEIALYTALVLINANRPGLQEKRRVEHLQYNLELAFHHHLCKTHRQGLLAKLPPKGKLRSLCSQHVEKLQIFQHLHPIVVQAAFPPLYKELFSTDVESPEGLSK
- test: Antagonist activity at mouse Gal4-fused DBD RORgamma LBD (Pro-261-end) expressed in TRex-CHOK1 cells after 20 hrs by luciferase reporter gene assay
- Type: cell-based
pIC50: −log10 of the molar value.
readout-type: pIC50

>  <molecule>
S=C1N(CCCC[C@H]2CNC(CC3CCCCC3)=N2)C[C@H](Cc2ccccc2)N1CCc1ccccc1

>  <reported-value>
5.29

$$$$

I. CCCC[C@H]1CN(CCCC[C@H]2CNC(CCC)=N2)C(=S)N1CCc1ccccc1
II. CC(CC1=N[C@@H](CCCCN2C[C@H](Cc3ccccc3)N(CCc3ccccc3)C2=S)CN1)c1ccccc1 (stereo partly drawn)
### Prompt # compare pIC50 for I vs II ; return the one with the smaller value Selection: enter the item's label.
### Response I

* * *

- test-target: Nuclear receptor ROR-beta (Rattus norvegicus)
- Sequence (P45446 whole entry): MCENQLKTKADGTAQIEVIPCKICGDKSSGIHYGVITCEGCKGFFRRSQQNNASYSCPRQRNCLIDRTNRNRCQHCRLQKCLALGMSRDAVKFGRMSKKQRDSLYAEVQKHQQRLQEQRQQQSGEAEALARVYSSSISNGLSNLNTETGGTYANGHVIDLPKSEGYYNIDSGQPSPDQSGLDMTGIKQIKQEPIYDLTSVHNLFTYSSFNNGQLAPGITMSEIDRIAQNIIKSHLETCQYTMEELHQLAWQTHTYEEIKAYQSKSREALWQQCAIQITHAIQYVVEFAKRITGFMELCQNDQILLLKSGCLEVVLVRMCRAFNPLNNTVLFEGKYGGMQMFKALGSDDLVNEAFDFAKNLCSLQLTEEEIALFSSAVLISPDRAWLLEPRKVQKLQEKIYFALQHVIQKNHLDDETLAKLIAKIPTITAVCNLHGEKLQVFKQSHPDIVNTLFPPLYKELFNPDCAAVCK
- test: Antagonist activity at rat Gal4-fused DBD RORbeta LBD (Pro-205-end) expressed in TRex-CHOK1 cells after 20 hrs by luciferase reporter gene assay
- Type: cell-based
pIC50: −log10 of the molar value.
readout-type: pIC50

>  <compound>
COc1cccc(CC2=N[C@@H](CCCCN3C[C@H](Cc4ccccc4)N(CCc4ccccc4)C3=S)CN2)c1

>  <reported-value>
5.08

$$$$

I. CCCC1=N[C@@H](CCCCN2C[C@H](Cc3ccccc3)N(CC3CCC(C)CC3)C2=S)CN1 (stereo partly drawn)
II. Fc1ccc(CC2=N[C@@H](CCCCN3C[C@H](Cc4ccccc4)N(CCc4ccccc4)C3=S)CN2)cc1
### Prompt # compare pIC50 for I vs II ; return the one with the smaller value Selection: enter the item's label.
### Response I
(I: 4.68, II: 4.91)

* * *

- test-target: UniProt:P45446
- test: Antagonist activity at rat Gal4-fused DBD RORbeta LBD (Pro-205-end) expressed in TRex-CHOK1 cells after 20 hrs by luciferase reporter gene assay
pIC50: −log10 of the molar value.
readout-type: pIC50

Reference set, count: 4
>  <line-notation>
C=CCC1=N[C@@H](CCCCN2C[C@H](Cc3ccccc3)N(CCc3ccccc3)C2=S)CN1

>  <pIC50>
4.84

$$$$
>  <line-notation>
CCCC1=N[C@@H](CCCCN2C[C@H](Cc3ccccc3)N(CCCC3CCCC3)C2=S)CN1

>  <pIC50>
4.99

$$$$
>  <line-notation>
CCCC[C@H]1CN(CCCC[C@H]2CNC(CCC)=N2)C(=S)N1CCc1ccccc1

>  <pIC50>
4.76

$$$$
>  <line-notation>
S=C1N(CCCC[C@H]2CNC(CCC3CCCC3)=N2)C[C@H](Cc2ccccc2)N1CCc1ccccc1

>  <pIC50>
5.04

$$$$

a. Fc1cccc(CC2=N[C@@H](CCCCN3C[C@H](Cc4ccccc4)N(CCc4ccccc4)C3=S)CN2)c1
b. CCCC1=N[C@@H](CCCCN2C[C@@H](C(C)(C)C)N(CCc3ccccc3)C2=S)CN1
### Prompt # compare pIC50 for a vs b ; return the one with the smaller value Selection: enter the item's label.
### Response b
(b: 4.65, a: 4.91)

* * *

- test-target: Nuclear receptor ROR-gamma (Mus musculus)
- test: Antagonist activity at mouse Gal4-fused DBD RORgamma LBD (Pro-261-end) expressed in TRex-CHOK1 cells after 20 hrs by luciferase reporter gene assay
pIC50: −log10 of the molar value.
readout-type: pIC50

>  <compound>
C/C=C/C1=N[C@@H](CCCCN2C[C@H](Cc3ccccc3)N(CCc3ccccc3)C2=S)CN1

>  <pIC50>
5.24

$$$$
>  <compound>
COc1cccc(CC2=N[C@@H](CCCCN3C[C@H](Cc4ccccc4)N(CCc4ccccc4)C3=S)CN2)c1

>  <pIC50>
5.20

$$$$
>  <compound>
CCCC1=N[C@@H](CCCCN2C[C@H](Cc3ccccc3)N(CCC3C4CC5CC(C4)CC3C5)C2=S)CN1 (stereo not given in full)

>  <pIC50>
5.10

$$$$

P. Cc1cccc(CC2=N[C@@H](CCCCN3C[C@H](Cc4ccccc4)N(CCc4ccccc4)C3=S)CN2)c1
Q. CCCC1=N[C@@H](CCCCN2C[C@H](Cc3ccccc3)N(CC3CCC(C)CC3)C2=S)CN1 (stereo not given in full)
### Prompt Of the two listed items, which has the higher pIC50? First: P Second: Q Selection: enter the item's label.
### Response P
